Test system: SNB-19
Assay: Antitumor activity against human SNB-19 cells assessed as reduction of cell growth at 10 uM after 48 hrs by SRB assay
Type: functional
Set-up: scale not given: the % may be the effect or the level left
OBSERVED_PROPERTY: Activity

TEST_SMILES: C[C@]12CC[C@H]3[C@@H](CCC4=CC(=O)CC[C@@]43CF)[C@@H]1CCC2=O
ASSAYED_SYSTEM: SNB-19
OBSERVED_PROPERTY: Activity
ENDPOINT_RESULT: 109.3%
--
TEST_SMILES: C[C@]12CCC(=O)C(N)=C1C=C[C@@H]1[C@@H]2CC[C@]2(C)C(=O)CC[C@@H]12.Cl
ASSAYED_SYSTEM: SNB-19
OBSERVED_PROPERTY: Activity
ENDPOINT_RESULT: 102.8%
--
TEST_SMILES: C[C@]12CCC(=O)C(Oc3ccccc3)=C1CC[C@@H]1[C@@H]2CC[C@]2(C)C(=O)CC[C@@H]12
ASSAYED_SYSTEM: SNB-19
OBSERVED_PROPERTY: Activity
ENDPOINT_RESULT: 114.92%

*Q* Fill in the recorded Activity for this molecule, with SNB-19 as test system: CCOC1=C2CC[C@@H]3[C@H](CC[C@]4(C)C(=O)CC[C@@H]34)[C@@]2(C)CCC1=O
*A* 112.3%
